Experiment: melting temperature; fluorescence melt of hairpins on a sequencing array, two-state fit, raised by 9.35 °C to match UV melts
Conditions: sodium 0.088 M
Measure: Tm (°C)
# number only, unit °C dropped from output

[Q] Tell me the measured Tm of CGGCACGGAAACGTACCG (((.(((....))).))) , please.
[A] 50.4

[Q] Moving on to GATCATTAGAATGATC ((((((....))))))
[A] 45.8

[Q] Can you check GTTTCCGAAAGGATCAAC ((((((....)))..))) next?
[A] 22.4

[Q] Try GCCACGCGAAAGCACGGC (((..((....))..))) next.
[A] 61.9

[Q] And what about the sequence GTCCTGTCGAAAGACGAC (((..(((....)))))) ?
[A] 34.1

[Q] And GCTGATCCGAAAGGAAGC (((..(((....)))))) ?
[A] 39

[Q] Repeat with GATCTAGCTTAGATC ((((((...))))))
[A] 38.1

[Q] Same question for GCGGAATCCGC ((((...)))) please.
[A] 51.7

[Q] Another: GTCCCTGGAAACAAGGAC ((((.((....)).))))
[A] 34.7

[Q] Item: GATTTAGCGAAAGCTATC (((..(((....))))))
[A] 29.1

[Q] Please give the result for GATCATTCAGATGATC ((((((....)))))) too.
[A] 46.9

[Q] Can you check GTCACTGGAAACAGCGAC (((.(((....))).))) next?
[A] 47.2

[Q] Now give it for GTAAGCGGAAACGCCTAC (((.(((....))).))) too.
[A] 35.4

[Q] And the next one, GGTTCCGAAAGGATAACC ((((((....)))..))) ?
[A] 43.5

[Q] Now consider CGACGTCGGAAACGATCG (((..(((....)))))) .
[A] 37

[Q] # iterate: GGCTAGGAAACTAGCC ((((((....))))))
[A] 60.4

[Q] # iterate: GTTTTCACGAAAGTGAAC (((..(((....))))))
[A] 35.4

[Q] Here is the next sequence: GTCGCCGAAAGGCTCGAC ((((((....)))..)))
[A] 39.1

[Q] Moving on to the next sequence: GATAACGGAAACGTCATC (((.(((....))).)))
[A] 31.4

[Q] Next: GCGGGCGGAAACACCCGC (((((.(....).)))))
[A] 60.5

[Q] Also GTGCACGAAAGTGTACAC ((((((....)))..))) , if possible.
[A] 51.8

====

Assay: folding enthalpy; higher = less favourable; fluorescence melt of hairpins on a sequencing array, two-state fit
Settings: sodium 0.088 M
Where folding enthalpy equals or exceeds -40 kcal/mol, the correct label is met; where it does not, the label is not met.

[Q] Decide: is the reported value of folding enthalpy for GACGACGAAAGTCGTGTC ((((((....)))..))) equal to or greater than -40 kcal/mol?
[A] met

[Q] Also GAAGATCCGAAAGGATTC (((..(((....)))))) , if possible.
[A] met

[Q] Lookup GGCAGTGGAAACGTTGCC ((((..(....)..))))
[A] met

[Q] Note, next up: GATCGTTACCACGATC ((((((....))))))
[A] not met

====

Would you mind telling me the reported folding enthalpy of each entry?
Assay: folding enthalpy; higher = less favourable; fluorescence melt of hairpins on a sequencing array, two-state fit
Details: sodium 0.088 M
Answer in kcal/mol, number only, no unit symbol.

[Q] So what does the record say about folding enthalpy for GGAATATCGAAAGATTCC (((..(((....)))))) ?
[A] -20

[Q] Please do the same for GTGTTGAAAAACAC (((((....))))) as well.
[A] -26.3

[Q] Also GCAAAGCGAAAGCTAGGC ((..(((....)))..)) , if possible.
[A] -15.1

[Q] Then this sequence: GATCCAAGTTTGGATC ((((((....))))))
[A] -41.1

[Q] Repeat with GATCACAGGAGTGATC ((((((....))))))
[A] -38.2

[Q] Same for GCCACTGGAAACAGTGAC (.(((((....))))).)
[A] -18.9

[Q] Here is the next sequence: GCTTACGGAAACGTGAGC (((.(((....))).)))
[A] -43.4

[Q] Consider next the sequence GCAAAGCGAAAGCGCTGC (((..((....))..))) in the same way.
[A] -16.9

[Q] Another sequence to check: GGACTGCGAAAGCACTCC (((.(((....))).)))
[A] -8.91

[Q] Now the sequence GTAGCGACGAAAGTCTAC (((..(((....))))))
[A] -13.2

[Q] What do you get for GTTTGAGGAAACTCAAAC (((((((....))))))) ?
[A] -36.8

[Q] Now consider GTACTGGGAAACCAGCAC ((.((((....)))).)) .
[A] -20.4

====

Would you mind telling me the reported folding enthalpy of each entry?
Assay: folding enthalpy; higher = less favourable; fluorescence melt of hairpins on a sequencing array, two-state fit
Conditions: sodium 0.088 M
Number only, in kcal/mol; omit the unit.

[Q] Reported folding enthalpy, sequence ATGCGGAAACGCAT (((((....))))) : ____
[A] -17.1

[Q] What do we get for GGGCTTCCGAAAGGACCC (((..(((....)))))) ?
[A] -23.4

[Q] Then GCGGACACCGC ((((...)))) ?
[A] -26.3

[Q] Could you do the same for GTGGAAGGAAACTTTCGC (.(.(((....))).).) , please?
[A] -20

[Q] Okay, and GTCGAAGGAAACTCCGAC ((((.((....)).)))) ?
[A] -27.6

[Q] Cool, now GTGGCGCGAAAGCGCAC (((.(((....))))))
[A] -8.04

[Q] Further, for GCACACGAAAGTGCATGC ((((((....)))..))) ?
[A] -14.4

[Q] Moving on to GCTTTCGCGAAAGCGAGC (((..(((....))))))
[A] -10.6

[Q] Repeat with GGGAGCCGAAAGGCCCCC (((.(((....))).)))
[A] -21.3

[Q] And then GCGGAGCGAAAGCAACGC (((..((....))..))) , what is it?
[A] -20.2

[Q] Now give it for GCGTGGGGACGC ((((....)))) too.
[A] -21.1

[Q] Check GGGCGAGCGAAAGCTCCC (((..(((....)))))) too.
[A] -13.1

[Q] Quick one: GATCTAATGTTAGATC ((((((....))))))
[A] -34.3

[Q] What about this sequence? GAGCCAGGAAACCGGCTC (((((.(....).)))))
[A] -37.5

[Q] What do you have for GACTGTGGAAACACAGCC (.(((((....))))).) ?
[A] -13.7

====

Assay: folding enthalpy; higher = less favourable; fluorescence melt of hairpins on a sequencing array, two-state fit
Settings: sodium 0.088 M
Measure: folding enthalpy (kcal/mol)
Numeric only. Scale: kcal/mol

[Q] Would you mind telling me what folding enthalpy value was observed for GATCGGACGTCCGATC ((((((....)))))) ?
[A] -47.5

[Q] Okay, and GGAAATGGAAACATCTCC (((.(((....))).))) ?
[A] -9.93

[Q] Now consider TCGATGAAAATCGA (((((....))))) and answer again.
[A] -19.5

====

Assignment: determine reported folding enthalpy for the given sequences.
Assay: folding enthalpy; higher = less favourable; fluorescence melt of hairpins on a sequencing array, two-state fit
Conditions: sodium 0.088 M
Write the value in kcal/mol as a bare number.

[Q] Can you look up the measured folding enthalpy of GCGGCCCCCGC ((((...)))) for me?
[A] -20.4

[Q] One more sequence: GGCTACGAAAGTATTGCC ((((((....)))..)))
[A] -20.1

[Q] GCGGCGCGAAAGCGTTGC ((..(((....)))..)) , same question.
[A] -21.2

[Q] Next: GATCACCCGTGTGATC ((((((....))))))
[A] -47.7

[Q] Would you mind doing GATCGGGACCCGATC ((((((...)))))) as well?
[A] -41.2

[Q] Note, next up: GTCATTACGAAAGTAGAC (((..(((....))))))
[A] -9.42

[Q] Can you handle GTCAACGAAAGTTGGGAC ((((((....)))..))) next?
[A] -11.5

[Q] Please answer likewise for GGGTGATCGAAAGATCCC (((..(((....))))))
[A] -19

[Q] Query GTTTCCCCGAAAGGGAAC (((..(((....)))))) next
[A] -13.7

[Q] Okay, and GATCTGACCACAGATC ((((((....)))))) ?
[A] -36.3

[Q] And for GCCCGCGGAAACGCGGAC (.(((((....))))).) ?
[A] -9.8

[Q] Please answer likewise for GTTTTAGCGAAAGCTAAC (((..(((....))))))
[A] -13.2

[Q] Please answer likewise for GAATTTGGAAACGAATTC (((((.(....).)))))
[A] -35.8

[Q] Follow-up item: GTATCTCGAAAGAGTAC (((.(((....))))))
[A] -23.5

[Q] Entry GATCGTATTGACGATC ((((((....)))))) please
[A] -22.8

[Q] Try this sequence next: GTCATCGAAAGATAGAC ((((((....))).)))
[A] -24.6

[Q] Field entry: GCGAGTGGAAACGCTTGC ((.((.(....).)).))
[A] -22.3

[Q] Likewise for GGGCTTGGAAACGAGTCC ((.((.(....).)).)) ?
[A] -32.8
